- System Tested: full length SGK1 (Homo sapiens, UniProt O00141)
- Construct: 125 μM full length SGK1 (Life Technologies Part #PR7358A); purchased Life Technologies PR7358A
- Sequence (O00141 whole entry): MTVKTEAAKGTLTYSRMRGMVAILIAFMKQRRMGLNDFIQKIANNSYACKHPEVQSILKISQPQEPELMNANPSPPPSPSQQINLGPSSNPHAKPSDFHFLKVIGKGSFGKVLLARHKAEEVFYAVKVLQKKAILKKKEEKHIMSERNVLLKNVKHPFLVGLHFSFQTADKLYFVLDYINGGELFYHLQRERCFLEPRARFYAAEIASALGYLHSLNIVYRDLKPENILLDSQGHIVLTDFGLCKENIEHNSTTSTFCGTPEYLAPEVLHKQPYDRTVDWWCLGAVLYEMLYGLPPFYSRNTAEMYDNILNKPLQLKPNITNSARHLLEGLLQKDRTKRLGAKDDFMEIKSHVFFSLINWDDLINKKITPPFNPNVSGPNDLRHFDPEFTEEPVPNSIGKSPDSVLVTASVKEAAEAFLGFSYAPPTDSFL
- Measurement Protocol: SGK1 inhibition Assay A (Caliper LabChip electrophoretic separation of fluorescent peptide substrate and phosphorylated product)
- Assay type: biochemical
- Settings: Assay A; 20 μM ATP, 40 min incubation; read-out: SGK1 IC50
Reported Metric: pIC50
pIC50 (log units): -log10 of the concentration in mol/L.

Recorded pIC50, per entry:
CC(=O)N1CC=C(c2cc(N3CCC[C@@H](NC(=O)c4ccc(-c5cncc(C#N)c5)s4)C3)c3c(N)ncnn23)C1 [Example 551] | 8.22
COC(=O)N1CC=C(c2cc(N3CCC[C@@H](NC(=O)c4sc(Cl)cc4OCCN4CCCC4)C3)c3c(N)ncnn23)C1 [Example 292] | 8.00
COC(=O)N1CC=C(c2cc(N3CCC[C@@H](NC(=O)c4sc(C(F)F)cc4OCCN(C)C)C3)c3c(N)ncnn23)C1 [Example 303] | 8.00

Value of pIC50 reported for the compound COc1ccccc1C(=O)N[C@@H]1CCCN(c2cc(-c3ccc(S(C)(=O)=O)cc3)n3ncnc(N)c23)C1 [Example 49] is 7.37

Value of pIC50 reported for the compound CC(=O)N1CC=C(c2cc(N3CCCC(NC(=O)c4sc(Cl)cc4OCC4CCNC4)C3)c3c(N)ncnn23)C1 (single isomer, unassigned) [Example 638] is 8.10

Value of pIC50 reported for the compound CS(=O)(=O)c1ccc(-c2cc(N3CCC[C@@H](NC(=O)c4ccnc(N)c4)C3)c3c(N)ncnn23)cc1 [Example 39] is 7.32
